target: hPPARgamma (Homo sapiens, UniProt P37231); construct: 10x-histidine tag (N); made in house; host or cells: E. coli; assay: hPPARgamma Ligand Binding Assay; settings: PPARg Ki, competition with [3H]-BRL 49,653, room temperature 2 hrs
Where a name gives a salt, the structure may show the parent alone.
RESULT TYPE: pKi
Please treat pKi as minus the base-10 logarithm of the molar concentration.

| MOLECULE | ASSAYED TARGET | pKi |
| --- | --- | --- |
| CN(CCOc1ccc(CC(Nc2ccccc2C(=O)c2ccc(C(F)(F)F)cc2)C(=O)O)cc1)c1nc2ccccc2o1 (stereo not shown) [Example 73] | hPPARgamma (Homo sapiens, UniProt P37231) | 6.94 |

input: I would be grateful if you could share the reported pKi for Cc1oc(-c2ccccc2)nc1CCOc1ccc(CC(Nc2ccccc2C(=O)c2ccc(CN)cc2)C(=O)O)cc1 (stereo not shown) [Example 82, hydrochloride] .
output: 7.19

input: Can you look up the measured pKi of CCCNS(=O)(=O)c1ccc(C(=O)c2ccccc2NC(Cc2ccc(OCCc3nc(-c4ccccc4)oc3C)cc2)C(=O)O)cc1 (stereo not shown) [Example 93] for me?
output: 7.00

---

pKi by entry:
biological target: hPPARgamma (Homo sapiens, UniProt P37231); construct: 10x-histidine tag (N); made in house; host or cells: E. coli; experiment: hPPARgamma Ligand Binding Assay; conditions: read-out: PPARg Ki; competition with [3H]-BRL 49,653, room temperature 2 hrs
Notebook: values listed as pKi are -log10 of the concentration (mol/L).

Below, 2 compounds whose answers are already recorded.
| SAMPLE SMILES | RESULT TYPE | REPORTED |
| --- | --- | --- |
| COC(=O)c1ccccc1N[C@@H](Cc1ccc(OCCc2nc(N3CCN(C)CC3)sc2C)cc1)C(=O)O | pKi | 6.85 |
| COC(=O)c1ccccc1N[C@@H](Cc1ccc(OCCSc2ccc(Cl)cn2)cc1)C(=O)O | pKi | 6.60 |

Here is another compound to look at.
input: Returns the measured pKi for the input compound. Input: COC(=O)c1ccccc1N[C@@H](Cc1ccc(OCCOc2ccc([N+](=O)[O-])cn2)cc1)C(=O)O
output: 6.54

---

molecular target: hPPARgamma (Homo sapiens, UniProt P37231); construct: 10x-histidine tag (N); made in house; host or cells: E. coli; assay: hPPARgamma Ligand Binding Assay; details: PPARg Ki, competition with [3H]-BRL 49,653, room temperature 2 hrs
Listing of recorded pKi by entry.
Expect pKi as a plain number equal to -log10 of the molar concentration.

Example entries begin here.
| COMPOUND | ASSAYED TARGET | RESULT TYPE | REPORTED |
| --- | --- | --- | --- |
| Cc1oc(-c2ccccc2)nc1CCOc1ccc(C[C@H](Nc2ccccc2C(=O)c2cc[n+]([O-])cc2)C(=O)O)cc1 [Example 57] | hPPARgamma (Homo sapiens, UniProt P37231) | pKi | 5.90 |
| CN(CCOc1ccc(CC(Nc2ccccc2C(=O)c2cccc(O)c2)C(=O)O)cc1)c1nc2ccccc2o1 (stereo not drawn) [Example 92] | hPPARgamma (Homo sapiens, UniProt P37231) | pKi | 7.70 |
| COc1ccccc1C(=O)c1ccccc1NC(Cc1ccc(OCCN(C)c2nc3ccccc3o2)cc1)C(=O)O (stereo not drawn) [Example 79] | hPPARgamma (Homo sapiens, UniProt P37231) | pKi | 7.30 |
| O=C(c1ccccc1)c1sccc1NC(Cc1ccc(OCc2ccccc2)cc1)C(=O)O (stereo not drawn) [Example 9] | hPPARgamma (Homo sapiens, UniProt P37231) | pKi | 6.15 |
| CC(=CC(=O)c1cccc(I)c1)N[C@@H](Cc1ccc(OCCN(C)c2nc3ccccc3o2)cc1)C(=O)O [Example 18] | hPPARgamma (Homo sapiens, UniProt P37231) | pKi | 8.00 |
| CN(CCOc1ccc(CC(Nc2ccccc2C(=O)c2ccsc2)C(=O)O)cc1)c1nc2ccccc2o1 (stereo not drawn) [Example 75] | hPPARgamma (Homo sapiens, UniProt P37231) | pKi | 7.12 |
| Cc1cccc(C)c1C(=O)c1ccccc1NC(Cc1ccc(OCCN(C)c2nc3ccccc3o2)cc1)C(=O)O (stereo not drawn) [Example 83] | hPPARgamma (Homo sapiens, UniProt P37231) | pKi | 6.46 |
| COC(=O)c1ccccc1N[C@@H](Cc1ccc(OC[C@@H]2CCCN2c2ccc([N+](=O)[O-])cc2)cc1)C(=O)O [Example 47] | hPPARgamma (Homo sapiens, UniProt P37231) | pKi | 6.62 |
| Cc1oc(-c2ccccc2)nc1CCOc1ccc(CC(Nc2ccccc2C(=O)C2CCCCC2)C(=O)O)cc1 (single isomer, unassigned) [Example 54] | hPPARgamma (Homo sapiens, UniProt P37231) | pKi | 5.52 |
| COC(=O)c1ccccc1N[C@@H](Cc1ccc(OCCc2nc(-c3ccccc3)sc2C)cc1)C(=O)O [Example 45] | hPPARgamma (Homo sapiens, UniProt P37231) | pKi | 7.52 |

// switching to the query compound
input: Lab note: need pKi for Cc1cccc(C(=O)c2ccccc2NC(Cc2ccc(OCCN(C)c3nc4ccccc4o3)cc2)C(=O)O)c1 (stereo not drawn) [Example 80] on hPPARgamma (Homo sapiens, UniProt P37231), anyone have it?
output: 8.00

---

target: hPPARgamma (Homo sapiens, UniProt P37231); construct: 10x-histidine tag (N); made in house; host or cells: E. coli; assay: hPPARgamma Ligand Binding Assay; conditions: PPARg Ki, competition with [3H]-BRL 49,653, room temperature 2 hrs
Ki by entry:
Answer format: numeric, nM implied, no suffix.

Check out these entries, answers already filled in.
| MOLECULE | ENDPOINT UNIT | Ki |
| --- | --- | --- |
| CN(CCOc1ccc(CC(Nc2ccccc2C(=O)c2ccc(-c3ccccc3)cc2)C(=O)O)cc1)c1nc2ccccc2o1 (stereo not drawn) [Example 109] | nM | 700 |
| CN(CCOc1ccc(CC(Nc2sccc2C(=O)c2ccccc2)C(=O)O)cc1)c1nc2ccccc2o1 (stereo not drawn) [Example 52] | nM | 100 |

Kindly review the next molecule as well.
input: Name the recorded Ki for CC(=CC(=O)c1ccccc1)N[C@@H](Cc1ccc(OCc2ccccc2)cc1)C(=O)O [Example 1] .
output: 55

---

Molecular target: hPPARgamma (Homo sapiens)
Construct: 10x-histidine tag (N); made in house; host or cells: E. coli
Sequence (P37231 195-475 isoform P37231-2): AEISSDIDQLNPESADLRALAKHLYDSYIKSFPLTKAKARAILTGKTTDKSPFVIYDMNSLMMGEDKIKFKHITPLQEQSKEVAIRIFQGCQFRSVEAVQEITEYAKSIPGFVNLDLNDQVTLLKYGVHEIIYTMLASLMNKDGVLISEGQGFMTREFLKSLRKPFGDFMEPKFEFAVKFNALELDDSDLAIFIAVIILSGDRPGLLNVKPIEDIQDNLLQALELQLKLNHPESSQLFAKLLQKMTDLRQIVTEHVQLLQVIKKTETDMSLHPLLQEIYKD
Assay: hPPARgamma Ligand Binding Assay
Settings: PPARg Ki, competition with [3H]-BRL 49,653, room temperature 2 hrs
Structures can show the parent of a compound that is named as a salt.
RESULT TYPE: pKi
Note on units: pKi is unitless, being -log10 of a concentration expressed in mol/L.

input: Which pKi is reported for this molecule? Cc1oc(-c2ccccc2)nc1CCOc1ccc(C[C@H](Nc2ccccc2C(=O)c2ccncc2)C(=O)O)cc1
output: 8.00

input: What value of pKi has been reported for the following molecule? COC(=O)c1ccccc1N[C@@H](Cc1ccc(OCCc2ccc(N(C)C)cc2)cc1)C(=O)O
output: 5.52

input: Can you look up the measured pKi of Cc1oc(-c2ccccc2)nc1CCOc1ccc(C[C@H](Nc2ccccc2C(=O)NCCCN)C(=O)O)cc1 [Example 90, hydrochloride] for me?
output: 5.52

input: What measured pKi goes with CN(CCOc1ccc(CC(Nc2ccsc2C(=O)c2ccccc2)C(=O)O)cc1)c1nc2ccccc2o1 (stereo not shown) ?
output: 7.15
